test system: HOP-92; assay: NCI-60 one-dose SRB screening; assay type: cell-based; conditions: Homo sapiens, HOP-92, Non-Small Cell Lung Cancer, 10 µM one dose, 48 h, read-out: growth percentage
attribute-measured: activity at 10 µM (%)
// note: answer is a bare numeric in %

Below, each entry is followed by its recorded activity at 10 µM result.
# compound, tested-on, readout-units, activity at 10 µM
data = [
    ("Cc1nn(-c2ccc(Br)cc2)c2nc(CNc3ccc(NCc4c(-c5ccccc5)no[n+]4[O-])cc3)[nH]c(=O)c12 [14c]", "HOP-92", "%", 108),
    ("Nc1ccc(NCc2c(-c3ccccc3)no[n+]2[O-])cc1", "HOP-92", "%", 116),
    ("Cc1nc(Nc2ccc(OCc3c(-c4ccccc4)no[n+]3[O-])cc2)c2cnn(-c3ccccc3)c2n1", "HOP-92", "%", 91.4),
    ("[O-][n+]1onc(-c2ccccc2)c1COc1ccc(Nc2ncnc3c2cnn3-c2ccc(Br)cc2)cc1", "HOP-92", "%", 109),
    ("Cc1nn(-c2ccccc2)c2nc(C(F)(F)F)nc(Nc3ccc(NCc4c(-c5ccccc5)no[n+]4[O-])cc3)c12 [12a]", "HOP-92", "%", 90.1),
    ("O=c1[nH]c(CNc2ccc(NCc3c(-c4ccccc4)no[n+]3[O-])cc2)nc2c1cnn2-c1ccccc1 [14a]", "HOP-92", "%", 85.4),
]

The compound listed as "[O-][n+]1onc(-c2ccccc2)c1COc1ccc(Nc2ncnc3c2cnn3-c2ccccc2)cc1" has a reported activity at 10 µM of 115

The compound listed as "Cc1nn(-c2ccccc2)c2ncnc(Nc3ccc(OCc4c(-c5ccccc5)no[n+]4[O-])cc3)c12" has a reported activity at 10 µM of 91.2

The compound listed as O=c1[nH]c(CCl)nc2c1cnn2-c1ccccc1 [13a] has a reported activity at 10 µM of 101

The compound listed as "Cc1nn(-c2ccc(Br)cc2)c2ncnc(Nc3ccc(OCc4c(-c5ccccc5)no[n+]4[O-])cc3)c12" has a reported activity at 10 µM of 86.5
